Recorded values, source paper PMC5421785.

- Target: HLA-DRB1*01:01 (Homo sapiens, UniProt P01903+P01911, A100R/D57E/F55L/F60I/F76Y/I96L/L162R/M171V/P40L/Q125E/R42F/V115G/Y59C)
- Construct: EBV transformed homozygous cell lines were used as sources of MHC molecules; endogenous in cells; host or cells: EBV transformed homozygous cell lines
- Experiment Description: HLA class II peptide binding, inhibition of radiolabeled peptide binding to purified MHC
- Condition Set: citrullinated 15-mer (X); purified MHC, inhibition of radiolabeled peptide binding; dash = IC50 >40,000 nM; read-out: DRB1*01:01 binding capacity, Cit peptide (IC50 nM)
Square brackets hold non-standard residues; d marks the D form. Peptide text beside a SMILES is read from it. Cit = NC(=O)NCCC[C@H](N)C(=O)O
Items are presented alongside their recorded IC50.
Numbers only here, please. The scale is nM.

{"Compound": "CC(C)C[C@H](NC(=O)[C@H](CCC(=O)O)NC(=O)[C@H](CCC(N)=O)NC(=O)[C@H](CC(C)C)NC(=O)[C@H](CCC(=O)O)NC(=O)[C@@H](NC(=O)[C@H](CCCCN)NC(=O)[C@H](CCC(=O)O)NC(=O)[C@H](CC(N)=O)NC(=O)[C@@H](N)[C@@H](C)O)C(C)C)C(=O)N[C@@H](CC(N)=O)C(=O)N[C@@H](CC(=O)O)C(=O)N[C@@H](CCCNC(N)=O)C(=O)N[C@@H](Cc1ccccc1)C(=O)N[C@@H](C)C(=O)O [TNEKVELQELNDXFA] (H-TNEKVELQELND[Cit]FA-OH)", "IC50, nM": 5570}

Prompt: So what's the measured IC50 for this one? CSCC[C@H](NC(=O)[C@H](CCCNC(=N)N)NC(=O)[C@H](CCCNC(=N)N)NC(=O)[C@@H](N)Cc1ccc(O)cc1)C(=O)N[C@@H](Cc1ccccc1)C(=O)NCC(=O)NCC(=O)N1CCC[C@H]1C(=O)NCC(=O)N[C@H](C(=O)N[C@@H](C)C(=O)N[C@@H](CO)C(=O)N[C@@H](CCCNC(N)=O)C(=O)N1CCC[C@H]1C(=O)N[C@@H](CO)C(=O)O)[C@@H](C)O [YRRMFGGPGTASXPS] (H-YRRMFGGPGTAS[Cit]PS-OH)
Completion: 334
